Data provenance: PubChem BioAssay AID1963868

For each entry below, report its viability, T/C value.
tested on: KRAS PDC tumor spheroids (HUVEC+MSC), viability; assay: Anticancer human tumor 254851-301-R-J1-PDC patient-derived colon carcinoma cell line growth inhibition [KRAS2]; details: second compound 3.16 µM; first compound 0.01 µM; hits give low values;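 further: spheroids exposed to compounds for seven days before readout; 100% = DMSO vehicle control luminescence of the spheroids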
# value in %; strip the unit string

According to the records, this compound Cn1ncnc1[C@H]1c2n[nH]c(=O)c3cc(F)cc(c23)N[C@@H]1c1ccc(F)cc1 + C=CC(=O)N1CCN(c2nc(=O)n(-c3c(C)ccnc3C(C)C)c3nc(-c4c(O)cccc4F)c(F)cc23)C(C)C1 displays viability, T/C of 94.3

For record CC(=O)OC12COC1CC(O)C1(C)C(=O)C(O)C3=C(C)C(OC(=O)C(O)C(NC(=O)OC(C)(C)C)c4ccccc4)CC(O)(C(OC(=O)c4ccccc4)C21)C3(C)C (configuration not stated) + C=CC(=O)N1CCN(c2nc(OCC3CCCN3C)nc3c2CCN(c2cccc4cccc(C)c24)C3)CC1CC#N the listed viability, T/C is 94.3
